Biological target: IGF 3P (Homo sapiens, UniProt P08069)
Construct: human IGF1R kinase domain residues M954-C1367; made in house; host or cells: baculovirus expression (insect cells)
Sequence (P08069 954-1367): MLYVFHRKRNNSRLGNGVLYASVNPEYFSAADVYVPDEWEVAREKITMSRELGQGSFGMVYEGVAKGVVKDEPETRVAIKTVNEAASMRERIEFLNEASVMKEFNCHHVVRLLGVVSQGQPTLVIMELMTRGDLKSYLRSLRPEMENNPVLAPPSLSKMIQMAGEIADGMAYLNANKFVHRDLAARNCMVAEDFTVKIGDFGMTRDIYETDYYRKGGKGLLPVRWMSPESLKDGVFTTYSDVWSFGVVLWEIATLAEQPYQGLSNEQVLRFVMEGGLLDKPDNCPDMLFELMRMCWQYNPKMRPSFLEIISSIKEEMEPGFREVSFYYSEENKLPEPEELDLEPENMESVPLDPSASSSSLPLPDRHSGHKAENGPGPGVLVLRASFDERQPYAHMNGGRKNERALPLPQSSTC
Assay: IGF1R kinase assay (LCCA), IGF 3P
Assay type: biochemical
Settings: IGF1R kinase LCCA assay
pIC50: −log10 of the molar value.
property: pIC50

Solved entries (count: 3):
- chemical_structure: "NS(=O)(=O)c1ccc(Nc2ncc(Br)c(Nc3cc(C4CC4)n[nH]3)n2)cc1"
  property: "pIC50"
  result: "6.30 to 7.30"
- chemical_structure: "CC(C)c1cc(Nc2cc(OCCN(C)C)nc(NCc3cc(-c4ccccc4)no3)n2)n[nH]1"
  property: "pIC50"
  result: "> 7.30"
- chemical_structure: "Cc1c(Br)cccc1Nc1ncc(Br)c(Nc2cc(C3CC3)[nH]n2)n1"
  property: "pIC50"
  result: "6.30 to 7.30"

Input: Determine its reported pIC50: `CCN(CC)CCNC(=O)c1ccc(Nc2ncc(C)c(Nc3cc(C4CC4)n[nH]3)n2)cc1`
Output: 5.30 to 6.30

Input: Determine its reported pIC50: `CCN(CC)CCNC(=O)c1ccc2cc(Nc3nc(C)cc(Nc4cc(C5CC5)n[nH]4)n3)ccc2c1`
Output: > 7.30
